Ref: the domain aggregation screens of Martell et al. (2025)

Below is a list of entries, each paired with its recorded soluble fraction (log2) value.
- test.description: soluble fraction after stress (log2 fold change); higher = more stays soluble; pooled small domains, quantitative proteomics
- assay.context: stress: pH 4
// response body must contain only the number

Below are worked cases with known answers.
                                   seq_text                 property  result
0  HMENLSGNDIKYLRKKYNLTQKELADALGLQKFGDRTIRRWEAEETHPSKLEQSSIQSFFNSLK  soluble fraction (log2)   0.111
1  HMKPSISKIYALWGVLQRSGKIKSQDKAALDAFVRKYTGVDHVKWLDESQARKIIEILKQMIA  soluble fraction (log2)   0.104
2  HMNNQILYERLRDLRERNHFTQAFVSSKLNIGRATYSNYERGKRTPSLDVIMDLASFYKVPFTYF  soluble fraction (log2)   0.113

Field soluble fraction (log2) (entry `HMEYKTGIINTNKVRVRNAADADATVIFAINKDIKVKILAEENGFYKIGVSVKNRGNGEDLIGFVKKELIT` ) reads 0.3

Field soluble fraction (log2) (entry `HMGAISGEQREFYTVFRGHLNSHVGEFKVEDIENLLMKAKTEVPDLLEEEFLKMGEAILNRYRN` ) reads -0.966

Field soluble fraction (log2) (entry `HMNESPVLAVLTPTERKVASLVAEGLTNQAIAARMILAEGTVKNHVSTLLHKLQAPDRTALALTLYKAFQ` ) reads 0.165

Field soluble fraction (log2) (entry `HMKRKAIDQSWQPDKEAIEILSKAGVNEEFIKEEIPEFILYWSEKGEESDTWNSKFIAQVRRQWAKTQH` ) reads 0.248

---

- test.description: soluble fraction after stress (log2 fold change); higher = more stays soluble; pooled small domains, quantitative proteomics
- assay.context: stress: pH 4
Consider the following partition of reported soluble fraction (log2) into named classes: low class = under -0.7, middle class = from -0.7 up to -0.05, high class = -0.05 and over

Reference set (5 entries):
>>> print(df.to_string())
                                   seq_text  assigned_category
0  HMDTQKYDLNDDGRFDVQDVTYLQIKIAGDGELTDNQKKIADYNNDGKIDVQDVTSAQMLIS          low class
1  HMGKPSSEELEALGRRTLEENVDVVEEILGGRDPKGKKIKYLEGLMMRALRGQETPEAVRRTLEELIFK         high class
2  HMNMIGDVIRNLRTVSSMTQTELGQRMGVIKQTISNWEKNISTPSIDAIVKLSSIFNVPTDYLL       middle class
3  HMGIVVDGTMTLEGVAERYGMSVGELARVIGVPPEYSNERLGRLRKSYEFEMDDIRIYIIQKQ          low class
4  HMEAEVIKTASDMADRNGLHNVSLKAIAENLGIRTPSLYNHIGSLDELLREIAHSGMRTMNE       middle class

Then there is this sequence:
Lab note: which band did `HMKELVAGQTVRVHHSIGFGQTGTVTALNSLKTTLPNGLRTNTASILFQNNEKVVLPISNFDIIES` land in? high class

---

- test.description: soluble fraction after stress (log2 fold change); higher = more stays soluble; pooled small domains, quantitative proteomics
- assay.context: stress: pH 4
Below is a list of entries, each paired with its recorded soluble fraction (log2) value.
// response body must contain only the number

Below are worked cases with known answers.
In [3]: df
Out[3]:
                                   seq_text   result
0  HMAVANEAIANINMKEVKQAIHNLPEIFKNPFLLYFDGYKYHEIAEMLDEPLGTIKSRIHFARKLLKSHI     0.22
1  HMPEVTMSYSARNQVVSFSKATQYEIVDEFGTVVLRGVGNQATLRYLSRGDYFVNFGAGTEVLKK    0.089
2  HMSRESNISTGRQLLEAQLPTWGYKKVEDIPSKQMKTALDAFNYKDVESLLQGLGEGSVALTTALRRLMP   -0.926
3  HMRKDWTPGAFVEAFVNDTPATRSTILAKAVSAGLSRWAADNLLRTADNDGLMVRQGSGKRNEPFTYRRGP     0.22
4  HMTPTNILIVEDEKEIRRFVRTALESEGLRVFESETLQRGLIEAGTRKPDLIILDLGLPDGDGLSYIRDLR   -0.662
5  HMQIYSQEIYDAQKVLKELGLYTSDLDGLNGPGTKRALRNFQSKSGLNADGVLGPLTKSALDKGEESYITV  -0.0943
6  HMVVPRSFKYEVLAHGGWAGNAQRYQTKEEALHAGLALSRRWTAVEDYRAVPSDDLPNQPAL    0.127
7  HMTTMTTGQRIAAKRKEQGLSQENLGEQLGVSRQAIYKWESDASLPDIDKLIALSRLFGVSTDYLLLE    -1.68

Field soluble fraction (log2) (entry `HMVGPAHIGLAVAKDQLPHWERHLTANGVEIEGRMRWDHGGESIYFRDPDAHLLELVTPGIWAN` ) reads -0.1

Field soluble fraction (log2) (entry `HMHDLDALTGLSGEARSKVYEEGSVFVAGEMWSAKSDAVIPAGSSIRVVRREGFILVVEKDS` ) reads -1.97

Field soluble fraction (log2) (entry `HMADVSPEAQHKMVEAFAQFGVTKEHIEQRIQRRLDAIQPAQMVTLKRIFASLRDGMSTPAEWFE` ) reads -1.03

Field soluble fraction (log2) (entry `HMHTGLAELTDRERDVLRLIATGMTNAAIGSALAYSPSTIRADTVSIYRKLEVRGRAEAAAVAVAAGLTQP` ) reads 0.123

Field soluble fraction (log2) (entry `HMSSLTQREYEIAELVADGLSNKAIAAELSISHTTAARHVANIMNKLGFNSRSQIAAWVADRAQG` ) reads -0.46

Field soluble fraction (log2) (entry `HMVTQVDYGTFLTRIDEGKVKSVEIQDNQIAFTAIDEAGKENIYVTGKVNDPELVDRLLAADIEDFSQVIP` ) reads -1.29

Field soluble fraction (log2) (entry `HMDKTTIKNEQKKQILIFAEMNLFFKAKDVAELLGLQASRARYLLQELVKDGKIQGIGNNKGRKYQLI` ) reads -0.591

Field soluble fraction (log2) (entry `HMTLSDIGHAVRTRRTELGLSQVQLARLSGLSRQTLVGLENGTLNDLGINRVAQLLAVLGLDAP` ) reads -0.203

Field soluble fraction (log2) (entry `HMRSEILNLLREKSPQPVSGQDLANHFGITRTAVWKHIQSLKKMGYGIEAYTKKGYVLVSVPN` ) reads 0.175
